target: plasma kallikrein (PK) (Homo sapiens, UniProt P03952); test: Determining the inhibitory constants: inhibition of PK (substrate Bzl-Pro-Phe-Arg-pNA); details: Tris buffer pH 8.0, 25° C.; mean of at least three determinations
Sequence (P03952 391-638 limits assumed, species assumed): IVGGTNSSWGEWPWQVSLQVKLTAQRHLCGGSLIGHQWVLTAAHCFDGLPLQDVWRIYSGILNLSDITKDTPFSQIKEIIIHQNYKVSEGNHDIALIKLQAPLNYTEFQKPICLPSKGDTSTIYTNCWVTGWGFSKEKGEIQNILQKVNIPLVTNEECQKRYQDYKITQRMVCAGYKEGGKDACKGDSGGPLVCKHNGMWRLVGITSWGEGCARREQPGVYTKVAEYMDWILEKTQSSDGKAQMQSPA
Sequence (P03952 20-390 partner limits assumed, species assumed): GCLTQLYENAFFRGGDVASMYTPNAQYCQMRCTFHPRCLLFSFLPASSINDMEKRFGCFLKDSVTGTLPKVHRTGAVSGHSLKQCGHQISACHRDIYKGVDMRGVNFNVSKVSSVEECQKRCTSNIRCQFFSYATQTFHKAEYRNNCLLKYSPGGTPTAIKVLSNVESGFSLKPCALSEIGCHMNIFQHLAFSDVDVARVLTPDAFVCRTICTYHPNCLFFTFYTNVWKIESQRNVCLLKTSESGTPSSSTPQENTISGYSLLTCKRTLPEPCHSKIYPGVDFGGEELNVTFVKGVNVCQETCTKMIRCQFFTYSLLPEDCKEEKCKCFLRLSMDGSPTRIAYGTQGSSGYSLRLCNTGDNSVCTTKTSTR
assay readout: pKi
# reply with the number alone; pKi is -log10 of concentration in mol/L

Lookup result for CC(C)(C)OC[C@@H](NS(=O)(=O)Cc1ccccc1)C(=O)N[C@@H](CCC(N)=O)C(=O)NCc1ccc(C(=N)N)cc1 [Inhibitor 31] ; measured pKi: 8.04

In plain terms, N=C(N)c1ccc(CNC(=O)[C@@H]2CCCN2C(=O)[C@@H](CC2CCCCC2)NS(=O)(=O)Cc2cccc(CN)c2)cc1 [Inhibitor 55] has a documented pKi of 7.05

Looking up N=C(N)c1ccc(CNC(=O)C2CCCN2C(=O)C(CO)NS(=O)(=O)Cc2ccccc2)cc1 (stereo not shown) [Inhibitor 3] , I see its pKi listed as 7.27

Please fill in: pKi reported for N=C(N)c1ccc(CNC(=O)[C@H](CC(=O)O)NC(=O)[C@@H](CO)NS(=O)(=O)Cc2ccccc2)cc1 [Inhibitor 4] = 5.43

Values from patent US9365613B2
